# ASSAY_COMMENT: Henry solubility constant Hcp at 298.15 K (mol/(m3 Pa))
# EXPERIMENTAL_PARAMETERS: reference: Helburn et al. (2008)
If the reported Henry solubility constant Hcp equals or exceeds 0.001, assign Yes. If not, assign No.

- COMPOUND: "C1CCCCC1 [cyclohexane]"
  ASSIGNED_CLASS: "No"
- COMPOUND: "CCOCC [diethyl ether]"
  ASSIGNED_CLASS: "Yes"
- COMPOUND: "CC(C)C12CCC(C)(CC1)O2 [1-methyl-4-(1-methylethyl)-7-oxabicyclo[2.2.1]heptane]"
  ASSIGNED_CLASS: "Yes"
- COMPOUND: "CC(C)=CCCC(C)=CC#N [3,7-dimethyl-2,6-octadienenitrile]"
  ASSIGNED_CLASS: "Yes"
- COMPOUND: "Cc1ccccc1 [methylbenzene]"
  ASSIGNED_CLASS: "Yes"
- COMPOUND: "CCCCOC(C)=O [butyl ethanoate]"
  ASSIGNED_CLASS: "Yes"
- COMPOUND: "CCCCCCCCCC=O [decanal]"
  ASSIGNED_CLASS: "Yes"
- COMPOUND: "CC(C)O [2-propanol]"
  ASSIGNED_CLASS: "Yes"
- COMPOUND: "ClC=C(Cl)Cl [trichloroethene]"
  ASSIGNED_CLASS: "No"
- COMPOUND: "C=C(C)[C@H]1CC=C(C)CC1 [(R)-1-methyl-4-(1-methylethenyl)-cyclohexene]"
  ASSIGNED_CLASS: "No"
- COMPOUND: "ClCCl [dichloromethane]"
  ASSIGNED_CLASS: "Yes"
